Test system: LOX IMVI melanoma
Experiment: NCI-60 one-dose screen, 48 h (100 = growth as untreated, 0 = no growth, -100 = all killed)
Details: 10 µM unless noted
The panel holds about 83,000 compounds, 20% with a hit somewhere; the sample as a whole holds those more often.
Checkbox rule: growth lower than 90% = Met; growth not lower than 90% = Not met.

O=C(NCCNC(=O)c1cc(S(=O)(=O)NCCc2ccccc2)c(O)c(O)c1O)c1cc(S(=O)(=O)NCCc2ccccc2)c(O)c(O)c1O; Met
COc1ccc(/C(=C\c2ccc3c(c2)OCO3)C(=O)Nc2nc3ccccc3s2)cc1; Not met
COc1ccc(C2CC(c3cccc(Nc4ccnc5cc(Cl)ccc45)c3)=NN2c2ccc(Cl)cc2)cc1 (stereo not drawn); Met
COc1ccc(/C=C2\N=C(c3cccnc3)N(c3ccccc3)NC2=O)cc1; Not met
COc1ccc([C@@H]2[C@@H](Oc3ccccc3)C(=O)N2c2cc(OC)c(OC)c(OC)c2)cc1F; Met

Req: Record COC(=O)CNS(=O)(=O)c1ccc2c(c1)Cc1cc(S(=O)(=O)NCC(=O)OC)ccc1-2 : is its growth strictly below 90%?
Resp: Not met

Req: Identify whether the compound CCn1c(CN2CCN(Cc3ccccc3)CC2)nc2cc(NC(=O)c3cccs3)ccc21 records growth below 90%.
Resp: Met

###

Test system: DU-145 prostate
Assay: NCI-60 one-dose screen, 48 h (100 = growth as untreated, 0 = no growth, -100 = all killed)
Details: 10 µM unless noted
About 83,000 compounds went through this panel and 20% of them were active in at least one assay; those are over-represented in the sample as a whole.
Measure Name: growth (%)
The response must be a number in % with no trailing unit.

Known growth results, listed for orientation:
COCCCNCC(=O)Nc1c(C)cccc1C; 113
CCNS(=O)(=O)c1ccc(C)cc1; 96.5
C=CCn1c(SCC(=O)Nc2ccc(/C(C)=N\O)cc2)nnc1-c1cc(-c2ccc(Cl)cc2)nc2ccccc12; 48.5
CCOP(=O)(O)OP(=O)(O)OCC; 105
COc1ccc(/C=c2\c(=O)n(-c3ccccc3)c3nn4c(=O)c(=O)[nH]nc4n23)cc1; 115
COc1ccc(OC)c(Nc2nc(-c3c(C)nc4sccn34)cs2)c1; 81.7

Attention now turns to another entry.
Req: For the compound CC(C)COC(=O)NC(C)(C)C , give its reported growth.
Resp: 115

###

Test system: ACHN renal
Assay: NCI-60 one-dose screen, 48 h (100 = growth as untreated, 0 = no growth, -100 = all killed)
Conditions: 10 µM unless noted
The panel holds about 83,000 compounds, 20% with a hit somewhere; the sample as a whole holds those more often. The source made the active and inactive calls. How the source made its calls: active means growth percent below 10; inactive means the rest.
Measure Name: growth

Check out these entries, answers already filled in.
CCN(CC)CCC(CNc1ccnc2cc(Cl)ccc12)c1ccc(O)cc1 (centres undefined); 98.5% (inactive)
CCCCn1c(-c2ccc(F)cc2)nc2cc(OC)c(OC)cc2c1=O; 101% (inactive)
CCCCCCCCCCCC1=NC(C)(C)CN1C(C)(C)CO; 56.7% (inactive)

Query compound follows.
Req: State growth (ACHN renal) of COc1ccc([C@@H]2[C@@H](Oc3ccccc3)C(=O)N2c2cc(OC)c(OC)c(OC)c2)cc1F .
Resp: 21.5% (inactive)

###

Test system: HOP-92 NSCLC
Assay: NCI-60 one-dose screen, 48 h (100 = growth as untreated, 0 = no growth, -100 = all killed)
Settings: 10 µM unless noted
Protocol: Growth inhibition of the HOP-92 human Non-Small Cell Lung tumor cell line is measured as a screen for anti-cancer activity. Cells are grown in 96 well plates and exposed to the test compound for 48 hours. Compounds are tested at a single concentration, which is 10^-5 M for most compounds. The reported endpoint is percent growth (GI% or GIPRCNT), where numbers from 0 - 100% represent growth inhibition, and numbers from -100% - 0 represent cell death. […]
Compounds without any hit were thinned out: in the full panel of roughly 83,000, 20% have a hit.
Classification field: enter Satisfied for growth values not below 50%, Not satisfied for values below it.

Take a look at these entries with their results.
O=C1OCC2=C1C(c1ccc(Cl)c(Cl)c1)c1cc3c(cc1N2CCO)CCC3 (configuration not stated); Satisfied
CC(=O)Nc1ccc(Cl)cc1Cl; Satisfied
Cc1[nH]n(C(=O)c2ccncc2)c(=O)c1N=Nc1ccc(O)c(C(=O)O)c1; Satisfied
O=C(/C=C/c1ccccc1)C(Br)C(Br)c1ccccc1 (configuration not stated); Not satisfied
COc1ccc(-c2[nH]nc(N)c2-c2cc(OC)c(OC)c(OC)c2)cc1; Not satisfied

Req: Is it the case that COc1cc(NCCCCC(C)N)c2nccc(C)c2c1 (configuration not stated) has growth reaching or exceeding 50%?
Resp: Not satisfied

Req: For this molecule, is measured growth 50% or higher? CN1CCN(Cc2ccc(NC(=O)c3ccc(C#N)c(C#Cc4cnc(N)c5ncccc45)c3)cc2C(F)(F)F)CC1
Resp: Satisfied

###

// growth lookup, one value per entry
Tested on: LOX IMVI melanoma
Test: NCI-60 one-dose screen, 48 h (100 = growth as untreated, 0 = no growth, -100 = all killed)
Details: 10 µM unless noted
Description: Growth inhibition of the LOX IMVI human tumor cell line is measured as a screen for anti-cancer activity. Cells are grown in 96 well plates and exposed to the test compound for 48 hours. Compounds are tested at a single concentration, which is 10^-5 M for most compounds. The reported endpoint is percent growth (GI% or GIPRCNT), where numbers from 0 - 100% represent growth inhibition, and numbers from -100% - 0 represent cell death. For example, a value of 40 represents 60% growth inhibition. […]
About 83,000 compounds went through this panel and 20% of them were active in at least one assay; those are over-represented in the sample as a whole.
Field format: number, assumed %, no unit text.

COc1ccc(-c2cn(-c3cccc(C(=O)/C=C/c4ccc(O)c(OC)c4)c3)c(=O)[nH]2)cc1; -13.9
N#Cc1c(NN)n(C2OC(CO)C(O)C2O)c2ncnc(N)c12 (stereo not drawn); -4.81
C=CCn1c(SCC(=O)Nc2ccc(C(=O)/C=C/c3ccc(Cl)cc3)cc2)nnc1-c1ccc(Cl)cc1; 89.9
COc1ccc(C2CC(c3cccc(Nc4ccnc5cc(Cl)ccc45)c3)=NN2c2ccccc2)cc1 (stereo not drawn); 49

Req: Fill in growth for CCCCn1cnc(-c2cc(-c3ccccc3)cc(C(F)(F)F)c2)n1 tested with LOX IMVI melanoma.
Resp: 105

Req: Write down measured growth (LOX IMVI melanoma) for this compound. Clc1ncnc2scc(C3COc4ccccc4O3)c12 (stereo not drawn)
Resp: 41

Req: GET growth where system = LOX IMVI melanoma and item = CCN(CC)Cc1cc(Nc2ccnc3cc(Cl)ccc23)cc(-c2ccc(Cl)cc2)c1O
Resp: 0.179

###

growth overview
Tested on: SF-539 CNS
Test: NCI-60 one-dose screen, 48 h (100 = growth as untreated, 0 = no growth, -100 = all killed)
Conditions: 10 µM unless noted
This is part of a sample that, as a whole, favours compounds with a hit. Of some 83,000 tested, about 20% had one in any assay. Calls of active or inactive are those of the source. How the source made its calls: active means growth percent below 10; inactive means the rest.

Example cases with answers are listed next.
O=C1/C(=C\c2cccn2Cc2ccc(Cl)cc2)c2ccccc2N1c1c(Cl)cccc1Cl; 88.8% (inactive)
COS(=O)(=O)CCN(CCOS(C)(=O)=O)S(C)(=O)=O; 91.2% (inactive)

Could you now consider this next compound?
Req: Specify reported growth for the compound shown: O=C1c2ccccc2C2N1CCC1CCc3ccccc3N12 (stereo not drawn)
Resp: 88.9% (inactive)

###

System: NCI-H226 lung
Experiment: NCI-60 one-dose screen, 48 h (100 = growth as untreated, 0 = no growth, -100 = all killed)
Conditions: 10 µM unless noted
This is part of a sample that, as a whole, favours compounds with a hit. Of some 83,000 tested, about 20% had one in any assay.
# key: entry, value: growth
Expressed in %, but write only the number.

Some compounds with recorded growth:
COc1ccc(-c2[nH]nc(N)c2-c2cc(OC)c(OC)c(OC)c2)cc1; 68.3
O=C(C(=O)c1cccnc1)c1cccnc1; 115
CCN(CC)CCCC(C)Nc1cnc(C(=O)Nc2ccc(Cl)c3cccnc23)cn1 (centres undefined); 39.1
COC(=O)CNS(=O)(=O)c1ccc2c(c1)Cc1cc(S(=O)(=O)NCC(=O)OC)ccc1-2; 89.9
CC(=O)O[C@H]1[C@H](CC#CC#CC[C@@H]2C[C@]3(C)[C@H]4CC=C5[C@H]6[C@@H](C)[C@H](C)CC[C@]6(C(=O)NCCN(CCN)CCN)CC[C@@]5(C)[C@]4(C)CC[C@H]3C(C)(C)[C@H]2OC(C)=O)C[C@]2(C)[C@H]3CC=C4[C@H]5[C@@H](C)[C@H](C)CC[C@]5(C(=O)NCCN(CCN)CCN)CC[C@@]4(C)[C@]3(C)CC[C@H]2C1(C)C; 69.5
CC(C)=CCC[C@H](C)c1ccc(C)c2c1OCN(CCO)C2; 91.2
CNC(=O)c1cc(Oc2ccc(NC(=O)c3nc(S(C)(=O)=O)n(C)c3-c3ccc(F)cc3)cc2)ccn1; 87.4
Cc1ccc(/C=C/C(=N/N=C(N)N)c2ccccc2)cc1; 59.5

Req: Specify measured growth for CNCc1cccc2c1OCCOCCOCCC(C)S(=O)(=O)c1ccc(cc1)-c1cnc(N)c(n1)C(=O)N2 (centres undefined) .
Resp: 31.6
